experiment: Half life in ICR mouse at 5 mg/kg, ip by LC-MS/MS analysis; assay type: ADME, organism-based; conditions: in vivo
# Lookup of reported t1/2 keyed by entry
assay_endpoint: t1/2

[[record]]
molecule = "CC1(C)[C@H](NC(=O)c2ccc(N3CCN(C4CC5(CCN(C(=O)C6CCN(c7ccc8nnn(C9CCC(=O)NC9=O)c(=O)c8c7)CC6)CC5)C4)CC3)cc2)C(C)(C)[C@H]1Oc1ccc(C#N)c(Cl)c1 (some centres undefined)"
result = "4.41 h"

[[record]]
molecule = "CC1(C)[C@H](NC(=O)c2ccc(N3CCN(CCOC4CCN(c5ccc6nnn(C7CCC(=O)NC7=O)c(=O)c6c5)CC4)CC3)cc2)C(C)(C)[C@H]1Oc1ccc(C#N)c(Cl)c1 (some centres undefined)"
result = "4.51 h"

[[record]]
molecule = "CC1(C)[C@H](NC(=O)c2ccc(N3CCN(CC4CCN(C(=O)C5CN(c6ccc7nnn(C8CCC(=O)NC8=O)c(=O)c7c6)C5)CC4)CC3)cc2)C(C)(C)[C@H]1Oc1ccc(C#N)c(Cl)c1 (some centres undefined)"
result = "4.82 h"

[[record]]
molecule = "CC1(C)[C@H](NC(=O)c2ccc(N3CCN(CCOC4CCN(C(=O)C5CN(c6ccc7nnn(C8CCC(=O)NC8=O)c(=O)c7c6)C5)CC4)CC3)cc2)C(C)(C)[C@H]1Oc1ccc(C#N)c(Cl)c1 (some centres undefined)"
result = "4.24 h"


---

target: Protein cereblon/Androgen receptor (Homo sapiens, UniProt P10275+Q96SW2); assay: Protac activity at CRBN/AR in human LNCaP cells assessed as AR degradation at 1 uM by Western blotting analysis relative to control; type: cell-based
Sequence (P10275 whole entry, looked up): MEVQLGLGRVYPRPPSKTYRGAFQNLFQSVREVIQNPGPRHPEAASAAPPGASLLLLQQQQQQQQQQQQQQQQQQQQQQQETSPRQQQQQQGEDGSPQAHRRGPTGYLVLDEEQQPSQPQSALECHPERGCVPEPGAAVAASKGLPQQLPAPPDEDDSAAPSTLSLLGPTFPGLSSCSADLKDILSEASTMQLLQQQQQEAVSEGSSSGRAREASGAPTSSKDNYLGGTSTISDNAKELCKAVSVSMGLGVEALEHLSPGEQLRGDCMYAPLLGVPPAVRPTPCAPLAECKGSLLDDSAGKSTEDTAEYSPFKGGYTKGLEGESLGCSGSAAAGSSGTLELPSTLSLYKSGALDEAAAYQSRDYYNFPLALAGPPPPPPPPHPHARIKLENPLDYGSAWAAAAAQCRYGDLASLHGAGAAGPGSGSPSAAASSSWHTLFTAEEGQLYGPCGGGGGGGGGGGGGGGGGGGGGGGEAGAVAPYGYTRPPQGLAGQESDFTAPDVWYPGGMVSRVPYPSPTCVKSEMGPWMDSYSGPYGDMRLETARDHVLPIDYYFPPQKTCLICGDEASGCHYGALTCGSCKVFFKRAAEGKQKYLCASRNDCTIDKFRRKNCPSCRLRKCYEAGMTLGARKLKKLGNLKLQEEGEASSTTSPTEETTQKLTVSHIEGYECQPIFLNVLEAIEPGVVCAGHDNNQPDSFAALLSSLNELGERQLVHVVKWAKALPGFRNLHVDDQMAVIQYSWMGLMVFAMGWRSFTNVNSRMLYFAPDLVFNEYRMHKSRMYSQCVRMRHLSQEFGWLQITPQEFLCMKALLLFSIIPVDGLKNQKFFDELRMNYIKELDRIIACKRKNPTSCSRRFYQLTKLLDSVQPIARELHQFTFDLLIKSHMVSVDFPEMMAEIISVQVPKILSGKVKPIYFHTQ
Sequence (Q96SW2 whole entry, looked up): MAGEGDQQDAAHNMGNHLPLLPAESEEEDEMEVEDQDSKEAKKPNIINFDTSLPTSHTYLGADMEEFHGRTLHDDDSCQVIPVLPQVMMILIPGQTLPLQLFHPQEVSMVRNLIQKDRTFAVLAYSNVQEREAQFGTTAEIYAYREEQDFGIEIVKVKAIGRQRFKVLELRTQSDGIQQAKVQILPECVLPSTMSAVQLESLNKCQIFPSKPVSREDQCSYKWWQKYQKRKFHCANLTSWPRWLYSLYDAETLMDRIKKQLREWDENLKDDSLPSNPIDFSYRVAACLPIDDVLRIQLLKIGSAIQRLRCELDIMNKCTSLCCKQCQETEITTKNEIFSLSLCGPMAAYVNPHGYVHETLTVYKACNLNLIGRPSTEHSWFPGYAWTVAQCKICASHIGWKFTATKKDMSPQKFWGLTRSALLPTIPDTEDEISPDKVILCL
Reported values of Activity for individual entries
assay_endpoint: Activity (%)

[[record]]
compound = "CC1(C)[C@H](NC(=O)c2ccc(N3CCN(C4CC5(CCN(C(=O)CNc6ccc7nnn(C8CCC(=O)NC8=O)c(=O)c7c6)CC5)C4)CC3)cc2)C(C)(C)[C@H]1Oc1ccc(C#N)c(Cl)c1 (stereo not given in full)"
assay_endpoint = "Activity"
units_of_measure = "%"
readout_number = 77

[[record]]
compound = "CC1(C)[C@H](NC(=O)c2ccc(N3CCN(CCC4CCN(C(=O)CNc5ccc6nnn(C7CCC(=O)NC7=O)c(=O)c6c5)CC4)CC3)cc2)C(C)(C)[C@H]1Oc1ccc(C#N)c(Cl)c1 (stereo not given in full)"
assay_endpoint = "Activity"
units_of_measure = "%"
readout_number = 87

[[record]]
compound = "CC1(C)[C@H](NC(=O)c2ccc(N3CCN(CC4CCN(c5ccc6c(=O)n(C7CCC(=O)NC7=O)nnc6c5)CC4)CC3)cc2)C(C)(C)[C@H]1Oc1ccc(C#N)c(Cl)c1 (stereo not given in full)"
assay_endpoint = "Activity"
units_of_measure = "%"
readout_number = 60

[[record]]
compound = "CC1(C)[C@H](NC(=O)c2ccc(N3CCN(CCOC4CCN(c5ccc6nnn(C7CCC(=O)NC7=O)c(=O)c6c5)CC4)CC3)cc2)C(C)(C)[C@H]1Oc1ccc(C#N)c(Cl)c1 (stereo not given in full)"
assay_endpoint = "Activity"
units_of_measure = "%"
readout_number = 89

[[record]]
compound = "CC1(C)[C@H](NC(=O)c2ccc(N3CCN(CCC4CCN(C(=O)COc5ccc6nnn(C7CCC(=O)NC7=O)c(=O)c6c5)CC4)CC3)cc2)C(C)(C)[C@H]1Oc1ccc(C#N)c(Cl)c1 (stereo not given in full)"
assay_endpoint = "Activity"
units_of_measure = "%"
readout_number = 50

[[record]]
compound = "CC1(C)[C@H](NC(=O)c2ccc(N3CCN(CC4CCN(C(=O)C5CN(c6ccc7nnn(C8CCC(=O)NC8=O)c(=O)c7c6)C5)CC4)CC3)cc2)C(C)(C)[C@H]1Oc1ccc(C#N)c(Cl)c1 (stereo not given in full)"
assay_endpoint = "Activity"
units_of_measure = "%"
readout_number = 96

[[record]]
compound = "CC1(C)[C@H](NC(=O)c2ccc(N3CCN(C4CC5(CCN(C(=O)C6CCN(c7ccc8nnn(C9CCC(=O)NC9=O)c(=O)c8c7)CC6)CC5)C4)CC3)cc2)C(C)(C)[C@H]1Oc1ccc(C#N)c(Cl)c1 (stereo not given in full)"
assay_endpoint = "Activity"
units_of_measure = "%"
readout_number = 93

[[record]]
compound = "CC1(C)[C@H](NC(=O)c2ccc(N3CCN(CC4CCN(C(=O)C5CCN(c6ccc7nnn(C8CCC(=O)NC8=O)c(=O)c7c6)CC5)CC4)CC3)cc2)C(C)(C)[C@H]1Oc1ccc(C#N)c(Cl)c1 (stereo not given in full)"
assay_endpoint = "Activity"
units_of_measure = "%"
readout_number = 89

[[record]]
compound = "CC1(C)[C@H](NC(=O)c2ccc(N3CCN(CCC4CCN(C(=O)C5CN(c6ccc7nnn(C8CCC(=O)NC8=O)c(=O)c7c6)C5)CC4)CC3)cc2)C(C)(C)[C@H]1Oc1ccc(C#N)c(Cl)c1 (stereo not given in full)"
assay_endpoint = "Activity"
units_of_measure = "%"
readout_number = 84

[[record]]
compound = "CC1(C)[C@H](NC(=O)c2ccc(N3CCN(C4CC5(CCN(C(=O)C6CN(c7ccc8nnn(C9CCC(=O)NC9=O)c(=O)c8c7)C6)CC5)C4)CC3)cc2)C(C)(C)[C@H]1Oc1ccc(C#N)c(Cl)c1 (stereo not given in full)"
assay_endpoint = "Activity"
units_of_measure = "%"
readout_number = 79


// data source = ChEMBL document CHEMBL4706590
